target: UniProtKB O08914; test: In vitro competitive activity-based protein profiling, FAAH, mouse; settings: read-out: FAAH % inh. 1 μM (mouse)
Reported inhibition at 1 µM values are given for each entry in this list.

Examples from the recorded data:
>  <MOLECULE>
O=C(O)c1ccn(C(=O)N2CCN(Cc3nc4ccccc4s3)CC2)n1 [Example 189]

>  <TARGET_SYSTEM>
UniProtKB O08914

>  <inhibition at 1 µM>
0 to 25%

$$$$
>  <MOLECULE>
CN(Cc1ccc(C(F)(F)F)cc1N1C2CCC1COC2)C1(C)CCN(C(=O)n2ccc(C(=O)O)n2)CC1 [Example 207]

>  <TARGET_SYSTEM>
UniProtKB O08914

>  <inhibition at 1 µM>
0 to 25%

$$$$

Q. Lab request: please report inhibition at 1 µM under test system UniProtKB O08914 for O=C(O)c1ccn(C(=O)N2CCC3(CCN(C(=O)c4cc5ccc(C(F)(F)F)cc5s4)C3)CC2)n1 [Example 58]
A. 50 to 75%

Q. Lab request: please report inhibition at 1 µM under test system UniProtKB O08914 for O=C(O)c1ccn(C(=O)N2CCN(Cc3cccc(Oc4cc(C(F)(F)F)ccn4)c3)CC2)n1 [Example 57]
A. 50 to 75%

---

Molecular target: FAAH (Homo sapiens, UniProt O00519)
Sequence (O00519 1-579): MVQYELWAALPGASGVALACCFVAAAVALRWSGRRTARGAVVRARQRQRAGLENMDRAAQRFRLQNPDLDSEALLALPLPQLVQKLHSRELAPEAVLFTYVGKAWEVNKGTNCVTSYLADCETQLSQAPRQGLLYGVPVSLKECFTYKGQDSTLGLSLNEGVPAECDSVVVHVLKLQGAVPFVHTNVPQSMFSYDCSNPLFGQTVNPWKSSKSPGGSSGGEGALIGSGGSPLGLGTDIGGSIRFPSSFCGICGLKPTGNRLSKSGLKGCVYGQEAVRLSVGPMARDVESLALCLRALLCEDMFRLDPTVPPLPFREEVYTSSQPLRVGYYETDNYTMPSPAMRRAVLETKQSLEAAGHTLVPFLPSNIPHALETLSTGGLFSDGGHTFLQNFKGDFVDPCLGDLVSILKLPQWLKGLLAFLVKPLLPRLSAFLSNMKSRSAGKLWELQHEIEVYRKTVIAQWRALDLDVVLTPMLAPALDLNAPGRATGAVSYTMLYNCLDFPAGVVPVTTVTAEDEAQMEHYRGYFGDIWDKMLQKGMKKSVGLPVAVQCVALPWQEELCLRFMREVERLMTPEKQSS
Assay: In vitro competitive activity-based protein profiling, FAAH, human
Conditions: read-out: FAAH % inh. 1 μM (human)
QUANTITY_MEASURED: inhibition at 1 µM

>  <MOLECULE>
O=C(O)c1ccn(C(=O)N2CCN(Cc3ccc(Cl)cc3N3C4CCC3COC4)CC2)n1 [Example 105]

>  <QUANTITY_MEASURED>
inhibition at 1 µM

>  <TEST_RESULT>
0 to 25%

$$$$
>  <MOLECULE>
O=C(O)c1ccn(C(=O)N2CCC3(CCN(Cc4cc(Cl)cc(C(F)(F)F)c4)C3)CC2)n1 [Example 72]

>  <QUANTITY_MEASURED>
inhibition at 1 µM

>  <TEST_RESULT>
0 to 25%

$$$$
>  <MOLECULE>
O=C(O)c1ccn(C(=O)N2CCN(Cc3cccc(Oc4ccc(F)cc4)c3)CC2)n1 [Example 51]

>  <QUANTITY_MEASURED>
inhibition at 1 µM

>  <TEST_RESULT>
50 to 75%

$$$$
>  <MOLECULE>
CN(Cc1cc(Cl)ccc1C(F)(F)F)CC1CCN(C(=O)n2cc(Cl)c(C(=O)O)n2)CC1 [Example 54]

>  <QUANTITY_MEASURED>
inhibition at 1 µM

>  <TEST_RESULT>
> 75%

$$$$
>  <MOLECULE>
O=C(O)c1nn(C(=O)N2CCN(Cc3ccc(-c4cnc5ccccn45)cc3C(F)(F)F)CC2)cc1Cl [Example 145]

>  <QUANTITY_MEASURED>
inhibition at 1 µM

>  <TEST_RESULT>
50 to 75%

$$$$
>  <MOLECULE>
O=C(O)c1nn(C(=O)N2CC3CN(Cc4cc(N5CCCC5)cc(C(F)(F)F)c4)CC3C2)cc1Cl (stereo not shown) [Example 151]

>  <QUANTITY_MEASURED>
inhibition at 1 µM

>  <TEST_RESULT>
25 to 50%

$$$$

Q. Can you look up the measured inhibition at 1 µM of O=C(O)c1ccn(C(=O)N2C[C@H]3C[C@H](OCc4cc(F)cc(Cl)c4)C[C@H]3C2)n1 [Example 53] for me?
A. > 75%

---

target: UniProt O00519; test: In vitro competitive activity-based protein profiling, FAAH, human; details: read-out: FAAH % inh. 1 μM (human)
QUANTITY_MEASURED: inhibition at 1 µM

Examples from the recorded data:
>  <COMPOUND>
O=C(O)c1nn(C(=O)N2CCC3(CCCN3Cc3cc4ccc(C(F)(F)F)cc4s3)CC2)cc1Cl [Example 139]

>  <QUANTITY_MEASURED>
inhibition at 1 µM

>  <TEST_RESULT>
> 75%

$$$$
>  <COMPOUND>
O=C(O)c1nn(C(=O)N2CCC3(CCN(Cc4ccc(N5CCCC5)cc4C(F)(F)F)C3)CC2)cc1C(F)(F)F [Example 150]

>  <QUANTITY_MEASURED>
inhibition at 1 µM

>  <TEST_RESULT>
50 to 75%

$$$$
>  <COMPOUND>
O=C(O)c1ccn(C(=O)N2CCN(Cc3cccc(Oc4ccccc4Cl)c3)CC2)n1 [Example 85]

>  <QUANTITY_MEASURED>
inhibition at 1 µM

>  <TEST_RESULT>
0 to 25%

$$$$
>  <COMPOUND>
O=C(O)c1nn(C(=O)N2CCN(Cc3ccc(-c4nnn[nH]4)cc3C(F)(F)F)CC2)cc1Cl [Example 142]

>  <QUANTITY_MEASURED>
inhibition at 1 µM

>  <TEST_RESULT>
0 to 25%

$$$$
>  <COMPOUND>
O=C(O)c1ccn(C(=O)N2CCN(Cc3nc4ccccc4s3)CC2)n1 [Example 189]

>  <QUANTITY_MEASURED>
inhibition at 1 µM

>  <TEST_RESULT>
0 to 25%

$$$$

# input for lookup
Q. Can you look up the measured inhibition at 1 µM of O=C(O)c1ccn(C(=O)N2CCN(Cc3ccc(C(F)(F)F)cc3N3CCC(F)CC3)CC2)n1 [Example 102] for me?
A. 25 to 50%

---

molecular target: FAAH (Mus musculus); experiment: In vitro competitive activity-based protein profiling, FAAH, mouse; details: read-out: FAAH % inh. 1 μM (mouse)
Sequence (O08914 whole entry): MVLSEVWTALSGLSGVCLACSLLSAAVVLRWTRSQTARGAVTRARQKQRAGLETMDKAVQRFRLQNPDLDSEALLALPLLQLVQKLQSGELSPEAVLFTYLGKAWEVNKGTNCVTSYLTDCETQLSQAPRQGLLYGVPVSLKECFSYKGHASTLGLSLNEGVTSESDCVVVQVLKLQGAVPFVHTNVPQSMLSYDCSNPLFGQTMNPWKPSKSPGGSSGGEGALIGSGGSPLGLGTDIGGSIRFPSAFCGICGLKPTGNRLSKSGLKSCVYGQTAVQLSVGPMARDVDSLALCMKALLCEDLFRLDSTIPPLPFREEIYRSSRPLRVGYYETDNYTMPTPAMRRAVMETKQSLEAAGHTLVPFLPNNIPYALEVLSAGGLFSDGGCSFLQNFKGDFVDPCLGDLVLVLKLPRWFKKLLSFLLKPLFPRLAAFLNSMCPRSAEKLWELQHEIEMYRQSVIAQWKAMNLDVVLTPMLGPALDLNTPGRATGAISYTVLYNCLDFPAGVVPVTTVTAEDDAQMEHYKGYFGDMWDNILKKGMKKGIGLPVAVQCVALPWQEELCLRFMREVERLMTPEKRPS
Reported inhibition at 1 µM values are given for each entry in this list.

Examples from the recorded data:
>  <COMPOUND>
NC(=O)c1ccn(C(=O)N2CC3CN(Cc4cccc(C(F)(F)F)c4)CC3C2)n1 (centres unmarked) [Example 208]

>  <inhibition at 1 µM>
> 75%

$$$$
>  <COMPOUND>
CN(Cc1cc(Cl)ccc1C(F)(F)F)C1CCN(C(=O)n2ccc(C(=O)O)n2)CC1 [Example 81]

>  <inhibition at 1 µM>
0 to 25%

$$$$
>  <COMPOUND>
NC(=O)c1ccn(C(=O)N2CCN(Cc3cccc(Oc4ccccc4)c3)CC2)n1 [Example 198]

>  <inhibition at 1 µM>
> 75%

$$$$
>  <COMPOUND>
CN(Cc1ccccc1Cl)[C@@H]1C[C@@H]2CN(C(=O)n3ccc(C(N)=O)n3)C[C@@H]2C1 [Example 206]

>  <inhibition at 1 µM>
> 75%

$$$$
>  <COMPOUND>
O=C(O)c1ccn(C(=O)N2CCC(Oc3ccc(Cl)c(N4CCCC4)c3)CC2)n1 [Example 121]

>  <inhibition at 1 µM>
0 to 25%

$$$$

Q. Lab request: please report inhibition at 1 µM under test system FAAH (Mus musculus) for C[C@@H]1CCCN1c1cc(C(F)(F)F)ccc1CN1CCN(C(=O)n2ccc(C(=O)O)n2)CC1 [Example 95]
A. 0 to 25%

Q. Lab request: please report inhibition at 1 µM under test system FAAH (Mus musculus) for O=C(O)c1nn(C(=O)N2CCC3(CCN(Cc4cc(Cl)ccc4C(F)(F)F)C3)CC2)cc1C(F)(F)F [Example 148]
A. > 75%

Q. Lab request: please report inhibition at 1 µM under test system FAAH (Mus musculus) for O=C(O)c1ccn(C(=O)N2C[C@H]3C[C@@H](OCc4cc(F)cc(Cl)c4)C[C@H]3C2)n1 [Example 193]
A. > 75%

---

target: FAAH (Mus musculus); test: In vitro competitive activity-based protein profiling, FAAH, mouse; details: read-out: FAAH % inh. 1 μM (mouse)
QUANTITY_MEASURED: inhibition at 1 µM

Examples from the recorded data:
>  <COMPOUND>
O=C(O)c1ccn(C(=O)N2CCC(Oc3cccc(Cl)c3N3CCCC3)CC2)n1

>  <QUANTITY_MEASURED>
inhibition at 1 µM

>  <TEST_RESULT>
0 to 25%

$$$$
>  <COMPOUND>
C[C@@H]1CC[C@H](C)N1c1cc(C(F)(F)F)ccc1CN1CCN(C(=O)n2ccc(C(=O)O)n2)CC1

>  <QUANTITY_MEASURED>
inhibition at 1 µM

>  <TEST_RESULT>
0 to 25%

$$$$
>  <COMPOUND>
NC(=O)c1ccn(C(=O)N2CC3CN(Cc4ccc(N5CCOCC5)cc4C(F)(F)F)CC3C2)n1 (centres unmarked)

>  <QUANTITY_MEASURED>
inhibition at 1 µM

>  <TEST_RESULT>
> 75%

$$$$
>  <COMPOUND>
O=C(O)c1ccn(C(=O)N2CCN(Cc3cccc(C(F)(F)F)c3N3CCCC3)CC2)n1

>  <QUANTITY_MEASURED>
inhibition at 1 µM

>  <TEST_RESULT>
0 to 25%

$$$$
>  <COMPOUND>
O=C(O)c1ccn(C(=O)N2C[C@H]3C[C@H](Oc4cccc(-c5ccccc5)c4)C[C@H]3C2)n1

>  <QUANTITY_MEASURED>
inhibition at 1 µM

>  <TEST_RESULT>
> 75%

$$$$
>  <COMPOUND>
CN(Cc1ccccc1Cl)[C@H]1C[C@@H]2CN(C(=O)n3ccc(C(=O)O)n3)C[C@@H]2C1

>  <QUANTITY_MEASURED>
inhibition at 1 µM

>  <TEST_RESULT>
25 to 50%

$$$$

Q. Lab request: please report inhibition at 1 µM under test system FAAH (Mus musculus) for `O=C(O)c1ccn(C(=O)N2CCN(Cc3cccc(Oc4cnccn4)c3)CC2)n1`
A. 0 to 25%

Q. Lab request: please report inhibition at 1 µM under test system FAAH (Mus musculus) for O=C(O)c1nn(C(=O)N2CC3CC(OCc4ccccc4Cl)CC3C2)cc1C(F)(F)F (centres unmarked)
A. > 75%
